# credit: ChEMBL document CHEMBL4196167

assay: Cytotoxicity against LPS-induced mouse BV2 cells assessed as cell viability after 24 hrs by MTT assay; format: cell-based, BV-2; design: concentration or dose not given beside the values; settings: read-out: Activity
readout: viability at 24 h (%)
Lab book: enter the figure in %, no units written.

>  <compound>
CO[C@H]1/C=C/C=C/C=C/C[C@H](O)[C@H](C)[C@@H](OC(=O)[C@@H](C)NC(=O)C2CCCCC2)/C(C)=C\CCc2cc(O)cc(c2)NC(=O)C1

>  <viability at 24 h / %>
93.1

$$$$
>  <compound>
CO[C@H]1/C=C/C=C/C=C/C[C@H](OC(=O)[C@@H](C)NC(=O)CCCC(C)C)[C@H](C)[C@@H](O)/C(C)=C\CCc2cc(O)cc(c2)NC(=O)C1

>  <viability at 24 h / %>
83.8

$$$$

Asked: # query: viability at 24 h of entry CO[C@H]1/C=C/C=C/C=C/C[C@H](OC(=O)[C@@H](C)NC(=O)C2=CCCCC2)[C@H](C)[C@@H](O)/C(C)=C\CCc2cc(O)cc(c2)NC(=O)C1
Given back: 94.3

Asked: Same read-out for CO[C@H]1/C=C/C=C/C=C/C[C@H](OC(=O)[C@@H](C)NC(=O)CC(C)C)[C@H](C)[C@@H](O)/C(C)=C\CCc2cc(O)cc(c2)NC(=O)C1 ?
Given back: 92.7

Asked: Same read-out for CO[C@H]1/C=C/C=C/C=C/C[C@H](OC(=O)[C@@H](C)NC(=O)C2CCCCC2)[C@H](C)[C@@H](O)/C(C)=C\CCc2cc(O)cc(c2)NC(=O)C1 ?
Given back: 95.2

Asked: Same read-out for O=c1c(O)c(-c2ccc(O)c(O)c2)oc2cc(O)cc(O)c12 ?
Given back: 99.2

Asked: Same read-out for CC.CO[C@H]1/C=C/C=C/C=C/C[C@H](O)[C@H](C)[C@@H](OC(=O)[C@@H](C)NC(=O)CC(C)C)/C(C)=C\CCc2cc(O)cc(c2)NC(=O)C1 ?
Given back: 83.1

Asked: Same read-out for CCC(C)C(=O)N[C@H](C)C(=O)O[C@H]1C/C=C/C=C/C=C/[C@H](OC)CC(=O)Nc2cc(O)cc(c2)CC/C=C(/C)[C@H](O)[C@H]1C (stereo partly drawn) ?
Given back: 76.3

* * *

system: BV-2; assay: Inhibition of LPS-induced nitric oxide production in mouse BV2 cells after 24 hrs by Griess assay; type: functional, cell-based; conditions: BV-2, 24 h
readout: log10 IC50 (log10 of the value in nM)
Please keep in mind that the values are log10 of IC50 expressed in nM.

>  <molecule>
O=c1c(O)c(-c2ccc(O)c(O)c2)oc2cc(O)cc(O)c12 [QUERCETIN]

>  <log10 IC50>
3.38

$$$$
>  <molecule>
CO[C@H]1/C=C/C=C/C=C/C[C@H](OC(=O)[C@@H](C)NC(=O)C2=CCCCC2)[C@H](C)[C@@H](O)/C(C)=C\CCc2cc(O)cc(c2)NC(=O)C1

>  <log10 IC50>
1.48

$$$$
>  <molecule>
CC.CO[C@H]1/C=C/C=C/C=C/C[C@H](O)[C@H](C)[C@@H](OC(=O)[C@@H](C)NC(=O)CC(C)C)/C(C)=C\CCc2cc(O)cc(c2)NC(=O)C1

>  <log10 IC50>
3.92

$$$$
>  <molecule>
CCCC(=O)N[C@H](C)C(=O)O[C@H]1C/C=C/C=C/C=C/[C@H](OC)CC(=O)Nc2cc(O)cc(c2)CC/C=C(/C)[C@H](O)[C@H]1C

>  <log10 IC50>
3.23

$$$$
>  <molecule>
CO[C@H]1/C=C/C=C/C=C/C[C@H](OC(=O)[C@@H](C)NC(=O)C(C)C)[C@H](C)[C@@H](O)/C(C)=C\CCc2cc(O)cc(c2)NC(=O)C1

>  <log10 IC50>
3.46

$$$$

Asked: # query: log10 IC50 of entry CO[C@H]1/C=C/C=C/C=C/C[C@H](OC(=O)[C@@H](C)NC(=O)C2CCCCC2)[C@H](C)[C@@H](O)/C(C)=C\CCc2cc(O)cc(c2)NC(=O)C1 [TRIENOMYCIN A]
Given back: 1.30

Asked: Same read-out for CCC(C)C(=O)N[C@H](C)C(=O)O[C@H]1C/C=C/C=C/C=C/[C@H](OC)CC(=O)Nc2cc(O)cc(c2)CC/C=C(/C)[C@H](O)[C@H]1C (some centres undefined) ?
Given back: 2.68

Asked: Same read-out for CO[C@H]1/C=C/C=C/C=C/C[C@H](O)[C@H](C)[C@@H](OC(=O)[C@@H](C)NC(=O)C2CCCCC2)/C(C)=C\CCc2cc(O)cc(c2)NC(=O)C1 ?
Given back: 2.48

Asked: Same read-out for CO[C@H]1/C=C/C=C/C=C/C[C@H](OC(=O)[C@@H](C)NC(=O)CCC(C)C)[C@H](C)[C@@H](O)/C(C)=C\CCc2cc(O)cc(c2)NC(=O)C1 ?
Given back: 2.26
